pKi values for the compounds below.
protocol: Inhibition of Pseudomonas aeruginosa PA1409 using Boc-Lys(trifluoroacetyl)-AMC as substrate preincubated for 30 mins followed by substrate addition measured after 60 mins by trypsin-based fluorescence assay
Quick note: pKi values are minus log10 of concentrations in mol/L.

INSERT INTO results (sample_smiles, parameter, reported) VALUES
  ('O=C(NO)C(F)(F)C(F)(F)C(F)(F)C(F)(F)C(F)(F)C(F)(F)C(=O)Nc1ccc(I)cc1', 'pKi', 5.39);

Shifting focus to the compound that follows.
Record O=C(NO)C(F)(F)C(F)(F)C(F)(F)C(F)(F)C(F)(F)C(F)(F)C(=O)Nc1ccc2ccccc2c1 . Reported pKi: 5.42
